# System: MV4-11
# Protocol text: Cytotoxicity against human MV4-11 cells assessed as reduction in cell viability measured for 72 hrs by cellTiter-Glo assay
# Type: functional, cell-based
# Test context: MV4-11, 72 h
Observed property: IC50 (nM)

1. COCCN[C@H]1CC[C@H](Nc2cc(-c3csc(NCC4(C#N)CCOCC4)n3)c(Cl)cn2)CC1 ... 12

----------
# Protocol text: Downregulation of RNAP2 phosphorylation at serine 2 residue in human MV4-11 cells
# Format: functional, cell-based
Observed property: IC50

1) CC(=O)N[C@H]1CCC[C@@H](C(=O)Nc2cc(-c3cnn4c3CC(C)(C)C4)c(Cl)cn2)C1 ... 13 nM

----------
# Measurement target: Receptor-type tyrosine-protein kinase FLT3 (Homo sapiens, UniProt P36888, ITD)
# Protocol text: Binding affinity FLT3-ITD mutant (unknown origin) assessed as inhibition constant
pKi: −log10 of the molar value.
Observed property: pKi

1. Cc1cnc(NC2CCC(N)CC2)nc1-c1cnc2ccc(-c3ccccc3)cn12 (stereo unspecified) ... 7.89

----------
# Protocol text: Antiproliferative activity against human A-293 cells assessed as reduction in cell viability measured for 48 hrs by MTT assay
# Assay type: toxicity, cell-based
# Test context: A-293 (AD293) cells
Observed property: IC50 at 48 h (µM)

1. N[C@H]1CC[C@H](Nc2cc(-c3cccc(NCc4cccc(F)c4)n3)c(Cl)cn2)CC1 ... 0.076
2. CN(C)C/C=C\C(=O)Nc1ccc(C(=O)N[C@H]2CC[C@H](Nc3cc(-c4cccc(NCc5cccc(F)c5)n4)c(Cl)cn3)CC2)cc1 ... 3.23

----------
# Measurement target: CDK9/cyclin T1 (Homo sapiens, UniProt P50750)
# Sequence (O60563 whole entry): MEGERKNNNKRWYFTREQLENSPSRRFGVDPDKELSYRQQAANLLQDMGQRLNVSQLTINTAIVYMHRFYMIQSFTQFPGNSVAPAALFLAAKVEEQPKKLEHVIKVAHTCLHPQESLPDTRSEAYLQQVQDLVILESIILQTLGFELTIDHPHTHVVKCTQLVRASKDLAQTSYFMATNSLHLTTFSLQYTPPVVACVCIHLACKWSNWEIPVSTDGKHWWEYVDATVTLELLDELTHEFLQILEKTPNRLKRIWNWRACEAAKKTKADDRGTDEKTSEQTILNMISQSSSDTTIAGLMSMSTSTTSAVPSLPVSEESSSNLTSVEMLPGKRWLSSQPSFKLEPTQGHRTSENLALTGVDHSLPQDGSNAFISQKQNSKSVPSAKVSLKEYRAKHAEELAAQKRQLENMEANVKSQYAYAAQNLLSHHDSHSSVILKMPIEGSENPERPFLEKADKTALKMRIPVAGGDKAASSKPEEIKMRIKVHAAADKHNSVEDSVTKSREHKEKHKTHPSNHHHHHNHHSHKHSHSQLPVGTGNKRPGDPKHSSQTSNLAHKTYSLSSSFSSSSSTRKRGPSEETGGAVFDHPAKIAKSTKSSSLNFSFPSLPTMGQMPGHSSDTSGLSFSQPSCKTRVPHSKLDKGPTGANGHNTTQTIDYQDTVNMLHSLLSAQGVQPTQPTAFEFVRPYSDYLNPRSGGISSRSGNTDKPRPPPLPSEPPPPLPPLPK
# Sequence (P50750 whole entry): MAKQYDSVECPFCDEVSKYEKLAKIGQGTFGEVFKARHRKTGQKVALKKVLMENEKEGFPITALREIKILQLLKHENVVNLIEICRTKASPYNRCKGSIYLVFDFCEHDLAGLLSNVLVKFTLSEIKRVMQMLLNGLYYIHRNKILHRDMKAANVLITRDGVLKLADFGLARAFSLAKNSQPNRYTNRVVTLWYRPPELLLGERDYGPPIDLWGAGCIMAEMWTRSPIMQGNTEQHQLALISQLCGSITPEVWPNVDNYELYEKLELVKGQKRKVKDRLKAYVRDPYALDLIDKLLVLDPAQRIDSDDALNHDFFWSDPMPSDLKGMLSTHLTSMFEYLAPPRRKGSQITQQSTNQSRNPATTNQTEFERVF
# Protocol text: Inhibition of CDK9/cyclin T1 (unknown origin)
Observed property: IC50 (µM)

1) CN(C)C/C=C\C(=O)Nc1ccc(C(=O)N[C@H]2CC[C@H](Nc3cc(-c4cccc(NCc5cccc(F)c5)n4)c(Cl)cn3)CC2)cc1 ... 0.196

----------
Reported pIC50 values for a set of compounds
# Measurement target: Cyclin-dependent kinase 9 (Homo sapiens)
# Sequence (P50750 whole entry): as above
# Protocol text: Inhibition of CDK9 (unknown origin)
pIC50: −log10 of the molar value.
Observed property: pIC50

1. COCCN[C@H]1CC[C@H](Nc2cc(-c3csc(NCC4(C#N)CCOCC4)n3)c(Cl)cn2)CC1 ... 8.70
2. COc1ccccc1-c1cccc(Nc2cccc(N3CCCNCC3)c2)n1 ... 7.80
3. N[C@H]1CCN(c2c3c(nc4ccc(-c5ccnc(NC(=O)C6CC6)n5)cc24)CCCC3)C1 ... 8.65
4. COc1ccccc1-c1ccnc(Nc2ccc3c(c2)CC(=O)C(C(C)=O)C3C)n1 (stereo unspecified) ... 6.74

----------
# Measurement target: CDK9/cyclin T1 (Homo sapiens)
# Protocol text: Binding affinity to CDK9/cyclin T1 (unknown origin) assessed as inhibition constant
pKi: −log10 of the molar value.
Observed property: pKi

1) Cc1cnc(NC2CCC(N)CC2)nc1-c1cnc2ccc(-c3ccccc3)cn12 (stereo unspecified) ... 8.10

----------
# Protocol text: Cytotoxicity against human HEK293T cells assessed as reduction in cell viability incubated for 72 hrs by MTT assay
# Format: toxicity, cell-based, HEK-293T
Observed property: IC50 at 72 h

1) COc1ccc(C(=O)Nc2cc(-c3ccnc(N4CCC(O)CC4)c3)ccn2)cc1 ... > 800 nM

----------
# Measurement target: Cyclin-dependent kinase 9 (Homo sapiens)
Observed property: IC50 (nM)

1) CC(C)c1c2cc(-c3ccnc(Nc4ccc5c(N6CCN(C)CC6)ncnc5c4)n3)ccc2nn1C ... 1.9

----------
# Measurement target: Casein kinase I isoform alpha (Homo sapiens, UniProt P48729)
# Sequence (P48729 whole entry, canonical isoform): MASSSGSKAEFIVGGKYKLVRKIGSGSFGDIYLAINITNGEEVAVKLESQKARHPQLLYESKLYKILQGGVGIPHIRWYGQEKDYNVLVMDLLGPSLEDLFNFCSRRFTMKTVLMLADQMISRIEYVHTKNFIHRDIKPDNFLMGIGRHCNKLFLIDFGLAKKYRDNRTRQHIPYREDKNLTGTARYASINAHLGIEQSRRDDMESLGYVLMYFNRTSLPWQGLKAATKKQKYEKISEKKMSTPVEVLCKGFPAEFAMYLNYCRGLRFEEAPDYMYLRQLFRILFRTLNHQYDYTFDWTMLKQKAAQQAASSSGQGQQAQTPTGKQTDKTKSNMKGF
# Protocol text: Binding affinity to CK1alpha (unknown origin) assessed as dissociation constant
Reported Kd values for a set of molecules
Observed property: Kd (nM)

1) Cn1ncc(-c2nc(NC3CCC(N)CC3)ncc2Cl)c1CC1CC1 (configuration not stated) ... 5.3
2) Cn1ncc(-c2nc(NC3CCC(N)CC3)ncc2F)c1CC1CC1 (configuration not stated) ... 9.8

----------
# Measurement target: Cyclin-dependent kinase 7 (Homo sapiens, UniProt P50613)
# Sequence (P50613 whole entry): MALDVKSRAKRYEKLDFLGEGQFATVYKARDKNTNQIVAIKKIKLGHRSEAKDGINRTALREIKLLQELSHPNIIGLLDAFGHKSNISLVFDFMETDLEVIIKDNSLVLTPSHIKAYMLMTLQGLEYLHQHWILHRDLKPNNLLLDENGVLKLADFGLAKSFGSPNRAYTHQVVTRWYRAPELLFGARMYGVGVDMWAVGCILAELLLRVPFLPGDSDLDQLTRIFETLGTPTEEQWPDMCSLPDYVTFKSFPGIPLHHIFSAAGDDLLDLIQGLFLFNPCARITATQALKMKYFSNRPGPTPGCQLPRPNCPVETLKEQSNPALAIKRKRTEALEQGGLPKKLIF
Observed property: IC50 (µM)

1. COCCN[C@H]1CC[C@H](Nc2cc(-c3csc(NCC4(C#N)CCOCC4)n3)c(Cl)cn2)CC1 ... 0.172

----------
Entries with reported pKd on Cyclin-dependent kinase 9 (Homo sapiens)
pKd: −log10 of the molar value.
Observed property: pKd

1) Cn1ncc(-c2nc(NC3CCC(N)CC3)ncc2F)c1CC1CC1 (configuration not stated) ... 8.27
2) Cn1ncc(-c2nc(NC3CCC(N)CC3)ncc2Cl)c1CC1CC1 (configuration not stated) ... 8.40
